Entry source: ChEMBL document CHEMBL1201862

# Test system: U-251
# measurement description: NCI tumour cell line growth inhibition, 48 h
Structures can show the parent of a compound that is named as a salt. Activity calls are given as the source filed them. Cut-off read from the data, not from the text of the source: active = GI50 up to about 1.1 µM and inactive = higher.
Outcomes: active, inactive

compound: CN(C)CC1(C)CC/C(=C\c2ccccc2)C1=O (stereo not given)
cat: inactive
--
compound: C/C=C(\C)C(=O)OC1C2C(C)=CC(=O)C(O)C2(C)C2C3(O)OCC24C1OC(=O)C(OC(C)=O)C4C(C)C3O (stereo not given)
cat: active
--
compound: CSC1(SC2=NCCN2)SC2(NCCN2)S1
cat: inactive
--
compound: CCCCCCCCCCCCOCCCOP(=O)([O-])OCC[N+](C)(C)C
cat: inactive
--
compound: N#Cc1c(-c2ccc([N+](=O)[O-])cc2)c(C#N)c(=O)n(NS(=O)(=O)c2ccccc2)c1O
cat: inactive
--
compound: C[C@]12CCC3c4ccc(O)cc4CC[C@H]3C1CC(=O)NC2=O (stereo not given in full)
cat: inactive
--
compound: COS(=O)CCOC(=O)c1ccccc1SSc1ccccc1C(=O)OCCS(=O)OC (stereo not given)
cat: inactive
--
compound: COc1ccc(C(c2ccc(C(C)C)cc(=O)c2O)c2ccc3cccnc3c2O)cc1 (stereo not given)
cat: active
--
compound: Clc1cc2nsnc2c(Cl)n1
cat: inactive
--
compound: O=S(=O)(Oc1ccc2ccccc2c1-c1c(OS(=O)(=O)C(F)(F)F)ccc2ccccc12)C(F)(F)F
cat: inactive
--
compound: O=S(=O)(N/N=C1\CC2CCC1C2)c1ccccc1 (stereo not given)
cat: inactive
--
compound: NC(=S)NNC(=O)CCC(=O)Nc1ccc(Cl)cc1Cl
cat: inactive
--
compound: Nc1nc(N)nc(CC(=O)O)n1
cat: inactive
--
compound: Oc1ccc(C(=C(Br)c2ccccc2)c2ccc(O)cc2)cc1
cat: inactive
--
compound: COc1cc(OC)cc(Oc2nc3ccc(C(F)(F)F)cc3nc2-c2ccccc2)c1
cat: inactive
--
compound: CC(C)OC(=O)OCSc1ccccc1/N=C/c1cccc([N+](=O)[O-])c1
cat: inactive
--
compound: CN(C)c1cccc(/C=C(\C#N)c2ccccc2)c1
cat: active
--
compound: CC(CN1c2ccccc2Sc2ccccc21)N(C)C (stereo not given) [PROMETHAZINE HYDROCHLORIDE]
cat: inactive
--
compound: NC(=O)NC(=O)C1CCCCC1C(=O)O (stereo not given)
cat: inactive
--
compound: O=C(C1C(c2ccccc2)N1C(c1ccccc1)c1ccccc1)C1C(c2ccccc2)N1C(c1ccccc1)c1ccccc1 (stereo not given)
cat: inactive
